Molecular target: human CD3 (human, UniProt P07766 23-207; P09693 23-182; P04234 22-171)
Assay: cell-based or functional assay
READOUT NAME: EC50 of dTomato induction (CD69 promoter), Jurkat-CD69-dTomato cells, 24 h (µg/mL)

F332-7C9 (antibody, mouse IgG2a, V domains shown, also called F332-7C9-2; F332-7C9 (5C7, 7D10)) VH: QVQLQQSGPELVKPGASVRISCKASGYTFTSHYLHWVKQRPGQGFEWIGWIYPGDGNTRYNEKFKDRATLTADKSSSTAYLHLSSLTSEDSAVYFCARDAGYYFDYWGQGTTLAVSS VL: DIVMSQSPSSLAVSAGEKVTMSCKSSQSLLNSRTRKNYLAWYQQKPGQSLKVLIYWASTRESGVPDRFTGSGSGTDFTLTISSVQAEDLAVYYCKQSYSLRTFGGGTKLEIK	0.24
F332-7E3 (antibody, mouse IgG2a, V domains shown, also called F332-7E3-2) VH: QVQLQQPGAELGKPGTSVKLSCKASGYTFTSYWIHWVKQRPGQGLEWIGNINPNSGSINYNEKFKSKATLTVDKSSSTAYMQLSTLTSEDFAVYYCTRDTSGQYYFDYWGQGTTLTVSS VL: DIVMSQSPSSLAVSAGEKVTMSCKSSQSLLNSRTRKNYLAWYQQKPGQSPKLLIYWASTRESGVPDRFTGSGSGTDFTLTISSVQAEDLAVYYCKQSYHLRTFGGGTKLEIK	0.24
